- TARGET: UniProt P97266
- Sequence (P97266 whole entry): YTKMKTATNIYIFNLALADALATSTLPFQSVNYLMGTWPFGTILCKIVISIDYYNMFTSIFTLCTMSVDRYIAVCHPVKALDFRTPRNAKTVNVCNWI
- TEST: In vitro mu opioid activity was determined by its ability to inhibit the electrically induced contractions of smooth muscle preparations in guinea pig ileum (GPI)
- Type: functional, tissue-based
MEASURED ATTRIBUTE: IC50 (nM)
Reply numerically in nM, unit not repeated.

Worked examples, 4 molecules total:
> print(dat)
                                   molecule          target  measured.attribute  numeric.result
1  N[C@H](Cc1ccccc1)C(=O)N[C@@H]1CCCCNC(=O)[C@H](Cc2cc3ccccc3[nH]2)NC(=O)[C@H](Cc2ccc(O)cc2)NC1=O  UniProt P97266                IC50             627
2  CC1NC(=O)[C@H](Cc2ccc(O)cc2)NC(=O)[C@H](NC(=O)[C@H](N)Cc2ccccc2)CCCCNC1=O (single isomer, unassigned)  UniProt P97266                IC50            1830
3  CC1NC(=O)[C@H](Cc2ccccc2)NC(=O)[C@H](NC(=O)[C@@H](N)Cc2ccc(O)cc2)CCCCNC1=O (single isomer, unassigned)  UniProt P97266                IC50            0.11
4  CC1NC(=O)[C@H](Cc2ccc(O)cc2)NC(=O)[C@H](NC(=O)[C@@H](N)Cc2ccccc2)CCCCNC1=O (single isomer, unassigned)  UniProt P97266                IC50            30.4

# input for lookup
// field: IC50; key: N[C@@H](Cc1ccccc1)C(=O)N[C@@H]1CCCCNC(=O)[C@H](Cc2cc3ccccc3[nH]2)NC(=O)[C@H](Cc2ccc(O)cc2)NC1=O ; value = 17.7
